Form field: h-poly-IgG Bound (one value per entry).
System: poly-IgG from human serum (h-poly-IgG)
Assay explanation: Microtiter plate chromatography of resins: binding and elution of human poly-IgG
Settings: fraction of injected protein bound; 0.5 mg/ml IgG in PBS pH 7.3
Description: Resins were assessed in packed mode by microtiter plate chromatography. For each column, approximately 30 μl of resin were transferred to a 384-well filter plate and sealed with appropriate top fits. […] Unbound protein was washed from columns with 5 cv of PBS prior to elution with 5 cv of glycine buffer at pH 2.5. […] Effluent fractions were collected in 384-well plates and concentrations of protein were analyzed by Bradford assay. […]
Report the value in % with no unit label.

Past entries and their recorded results:
1) NCCCn1cnc2cc(C(=O)Nc3nc4c(s3)CCC4)ccc21 ... 91
2) NCCCn1cnc2cc(C(=O)Nc3nc(-c4ccccc4)ns3)ccc21 ... 100
3) Cc1nnc(NC(=O)c2ccc3c(c2)ncn3CCCN)s1 ... 92

Query: Consider the molecule Cc1cnc(NC(=O)c2ccc3c(c2)ncn3CCCN)s1 and give its recorded h-poly-IgG Bound.
Result: 89

Query: Supply reported h-poly-IgG Bound belonging to this molecule: Cn1nc(NC(=O)c2ccc3c(c2)ncn3CCCN)c2ccccc21
Result: 100

Query: Using known records, supply h-poly-IgG Bound for NCCOCCOCCn1cnc2cc(C(=O)Nc3nnc(-c4ccco4)s3)ccc21
Result: 100

Query: Please supply the value of reported h-poly-IgG Bound for the item N[C@@H](CCC(=O)NCCOCCOCCn1cnc2cc(C(=O)Nc3nnc(-c4ccco4)s3)ccc21)C(=O)NCCOCCOCCn1cnc2cc(C(=O)Nc3nnc(-c4ccco4)s3)ccc21
Result: 100

Query: Using known records, supply h-poly-IgG Bound for NCCCn1cnc2cc(C(=O)Nc3nnc(-c4ccco4)s3)ccc21
Result: 100

Query: Find the measured h-poly-IgG Bound of NCCCn1c(=O)[nH]c2cc(C(=O)Nc3nnc(-c4ccco4)s3)ccc21 and report it.
Result: 100

Query: Write down h-poly-IgG Bound measured for item NCCCn1cnc2cc(C(=O)Nc3nnc(-c4ccccc4)s3)ccc21
Result: 100

---

Listed here are compounds together with their documented Bevacizumab Bound.
Assayed target: Bevacizumab (Homo sapiens, UniProt P01857)
Construct: 0.5 mg/ml IgG in PBS pH 7.3; ligand immobilized on SEPHAR; Bevacizumab Yield; other: mass eluted (glycine pH 2.5) / mass injected; kd (dissociation constant, Langmuir isotherm); other: Bevacizumab 0.05-5 mg/ml in PBS pH 7.3, 25° C., at least 3 h; qm (maximum capacity); other: mg Bevacizumab per ml of resin; Langmuir isotherm; t0; fused on or other part: Humanized anti-VEGF-A VH domain joined N-terminally to the IGHG1 constant region (engineered, no UniProt entry)
Assay explanation: Microtiter plate chromatography of resins: binding and elution of Bevacizumab
Settings: fraction of injected protein bound; 0.5 mg/ml IgG in PBS pH 7.3; ligand immobilized on SEPHAROSE 4 FF
Please respond with the number in % and leave the unit unwritten.

Known Bevacizumab Bound results, listed for orientation:
1) Cc1nc2cc(C(=O)Nc3nc(-c4ccncc4)cs3)ccc2n1CCCN [Ligand L51] ... 100
2) Cc1csc(NC(=O)c2ccc3c(c2)ncn3CCCN)n1 [Ligand L15] ... 100

Query: Using known records, supply Bevacizumab Bound for Cc1nc2cc(C(=O)Nc3nnc(-c4ccco4)s3)ccc2n1CCCN [Ligand L39]
Result: 100

Query: Look up Bevacizumab Bound of NCCOCCOCCn1cnc2cc(C(=O)Nc3nnc(-c4ccco4)s3)ccc21 and report it.
Result: 100

Query: Supply recorded Bevacizumab Bound for NCCCn1cnc2cc(C(=O)Nc3nccs3)ccc21 [Ligand L16] here.
Result: 100

---

Test system: Cetuximab
Assay explanation: Microtiter plate chromatography of resins: binding and elution of Cetuximab
Settings: fraction of injected protein bound; 0.5 mg/ml IgG in PBS pH 7.3
Experimental: Resins were assessed in packed mode by microtiter plate chromatography. For each column, approximately 30 μl of resin were transferred to a 384-well filter plate and sealed with appropriate top fits. […] Unbound protein was washed from columns with 5 cv of PBS prior to elution with 5 cv of glycine buffer at pH 2.5. […] Effluent fractions were collected in 384-well plates and concentrations of protein were analyzed by Bradford assay. […]
Quantity kind: Cetuximab Bound

Recorded results for 5 compounds are shown here.
1. NCCOCCOCCn1cnc2cc(C(=O)Nc3nc(-c4ccccn4)cs3)ccc21 ... 100%
2. NCCCn1cnc2cc(C(=O)Nc3nnc(-c4ccccc4)s3)ccc21 ... 100%
3. Cc1cnc(NC(=O)c2ccc3c(c2)ncn3CCCN)s1 ... 100%
4. Cc1nc2cc(C(=O)Nc3nnc(-c4ccco4)s3)ccc2n1CCCN ... 100%
5. CCc1nc2cc(C(=O)Nc3nnc(-c4ccco4)s3)ccc2n1CCCN ... 100%

Query: Given NCCCn1c(=O)c(=O)[nH]c2cc(C(=O)Nc3nnc(-c4ccco4)s3)ccc21 , report its Cetuximab Bound on Cetuximab.
Result: 89%

Query: Report value only: Cetuximab Bound, Cetuximab, Cc1cc(NC(=O)c2ccc3c(c2)ncn3CCCN)nn1-c1ccccc1
Result: 98%

Query: Answer briefly: Cetuximab Bound recorded on Cetuximab for COc1ccc(NC(=O)c2nn(CCCN)c3ccccc23)cc1C(N)=O
Result: 100%

Query: Write down the reported Cetuximab Bound (system: Cetuximab) of NCCCn1cnc2cc(C(=O)Nc3nnc(-c4ccncc4)s3)ccc21
Result: 100%

---

Test system: Palivizumab
Assay explanation: Microtiter plate chromatography of resins: binding and elution of Palivizumab
Settings: L55-73: estimated values based on the knowledge obtained from L01-L54
Quantity kind: Palivizumab Bound

For orientation, consider the following solved cases.
1. NCCCn1cnc2cc(C(=O)Nc3ncc(-c4ccco4)s3)ccc21 ... >80%
2. Cc1nc2cc(C(=O)Nc3nnc(-c4ccoc4)s3)ccc2n1CCCN ... >80%
3. NCCCn1cnc2cc(C(=O)Nc3nc(-c4ccco4)ns3)ccc21 ... >80%
4. CCc1nc2cc(C(=O)Nc3ccc(-c4ccco4)nn3)ccc2n1CCCN ... >60%
5. NCCCNc1nc(-c2ccc(C(=O)Nc3nnc(-c4ccco4)s3)cc2)cs1 ... >50%

Query: Write down the reported Palivizumab Bound (system: Palivizumab) of NCCCn1cnc2cc(C(=O)Nc3nnc(-c4ccoc4)s3)ccc21
Result: >80%

Query: Give Palivizumab Bound; test system Palivizumab; molecule NCCCn1cnc2cc(C(=O)Nc3nc(-c4ccco4)cs3)ccc21
Result: >80%

Query: Look up and report Palivizumab Bound, with Palivizumab as system, for CCc1nc2cc(C(=O)Nc3nc(-c4ccco4)cs3)ccc2n1CCCN
Result: >80%

Query: Tell me Palivizumab Bound of Cc1nc2cc(C(=O)Nc3nnc(-c4cnco4)s3)ccc2n1CCCN when tested on Palivizumab.
Result: >60%

Query: Under Palivizumab: report Palivizumab Bound of NCCCn1cnc2cc(C(=O)Nc3ccc(-c4ccco4)nn3)ccc21 .
Result: >60%

---

Reported HCP Bound by item:
System: host cell proteins (HCP)
Assay explanation: Microtiter plate chromatography of resins: binding of host cell proteins
Design: species or system CHO cell culture
Settings: L55-73: estimated values based on the knowledge obtained from L01-L54

1) Cc1nc2cc(C(=O)Nc3nc(-c4ccco4)cs3)ccc2n1CCCN ... <40%

Query: Write HCP Bound of Cc1nc2cc(C(=O)Nc3ncc(-c4ccco4)s3)ccc2n1CCCN ; system used: host cell proteins (HCP)
Result: <20%

Query: Tell me its HCP Bound on host cell proteins (HCP): NCCCn1cnc2cc(C(=O)Nc3nc(-c4ccco4)cs3)ccc21
Result: <40%

Query: Find HCP Bound for Cc1nc2cc(C(=O)Nc3nnc(-c4ncco4)s3)ccc2n1CCCN on host cell proteins (HCP) and write it down.
Result: <20%

Query: Param request: HCP Bound | system host cell proteins (HCP) | item CCc1nc2cc(C(=O)Nc3nc(-c4ccco4)ns3)ccc2n1CCCN
Result: <30%

Query: Tell me HCP Bound of NCCCn1cnc2cc(C(=O)Nc3nnc(-c4ccoc4)s3)ccc21 when tested on host cell proteins (HCP).
Result: <40%

Query: Look up and report HCP Bound, with host cell proteins (HCP) as system, for CCc1nc2cc(C(=O)Nc3ccc(-c4ccco4)nn3)ccc2n1CCCN
Result: <30%

---

Test system: poly-IgG from human serum (h-poly-IgG)
Assay explanation: Microtiter plate chromatography of resins: binding and elution of human poly-IgG
Settings: L55-73: estimated values based on the knowledge obtained from L01-L54
Experimental: Resins were assessed in packed mode by microtiter plate chromatography. For each column, approximately 30 μl of resin were transferred to a 384-well filter plate and sealed with appropriate top fits. […] Unbound protein was washed from columns with 5 cv of PBS prior to elution with 5 cv of glycine buffer at pH 2.5. […] Effluent fractions were collected in 384-well plates and concentrations of protein were analyzed by Bradford assay. […]
Quantity kind: h-poly-IgG Bound

Example entries begin here.
1) NCCCn1cnc2cc(C(=O)Nc3nnc(-c4ccoc4)s3)ccc21 [Ligand L56] ... >80%
2) NCCCn1cnc2cc(C(=O)Nc3ncc(-c4ccco4)s3)ccc21 [Ligand L58] ... >80%
3) Cc1nc2cc(C(=O)Nc3nc(-c4ccco4)ns3)ccc2n1CCCN [Ligand L60] ... >80%

Query: Look up and report measured h-poly-IgG Bound for this entry: CCc1nc2cc(C(=O)Nc3nc(-c4ccco4)cs3)ccc2n1CCCN [Ligand L67]
Result: >80%

Query: Respond only with h-poly-IgG Bound recorded for CCc1nc2cc(C(=O)Nc3ncc(-c4ccco4)s3)ccc2n1CCCN [Ligand L68]
Result: >80%

Query: Supply h-poly-IgG Bound value. Item: NCCCn1cnc2cc(C(=O)Nc3ccc(-c4ccco4)nn3)ccc21 [Ligand L59]
Result: >80%

Query: Could you please provide reported h-poly-IgG Bound for CCc1nc2cc(C(=O)Nc3ccc(-c4ccco4)nn3)ccc2n1CCCN [Ligand L69] ? Thanks!
Result: >80%

Query: Retrieve h-poly-IgG Bound measured for NCCCn1cnc2cc(C(=O)Nc3nc(-c4ccco4)ns3)ccc21 [Ligand L55] and print it.
Result: >80%
